# assay-summary: HepG2 cell viability effects, profiling panel, calcein-AM fluorescence, 48 h, basal (AID 1164); note: test concentration not given here
# protocol-conditions: higher = more signal
Task for the reader: assign each of the following compounds its reported z-score.

compound=CCCNC(=O)[C@@]1(C)c2ccccc2C(=O)N(Cc2ccccc2)[C@H]1c1ccc(CO)cc1 result=1.03
compound="C=CC1c2cc(O)c(OC)cc2CCN1Cc1ccc([N+](=O)[O-])o1 (stereo not drawn)" result=-0.143

Batch of 4 compounds: report z-score for each.
1. COCCOC(=O)N1C(=O)[C@@]2(c3cc(C#CCCO)ccc31)[C@H](C(N)=O)[C@H]1C(=O)O[C@H](c3ccccc3)[C@H](c3ccccc3)N1[C@@H]2c1ccc(OCCO)cc1
2. [N-]=[N+]=NCc1ccccc1[C@H]1OC(c2ccc(OCCCO)cc2)=N[C@@]1(Cc1ccccc1)C(=O)NCCN1CCOCC1
3. CCOC(=O)C1=CCN(S(=O)(=O)c2ccc(C)cc2)C1c1ccccc1 (stereo not drawn)
4. CCCC=C(CCC)[C@@H](NS(=O)(=O)c1cccc2cccnc12)c1ccc(-c2ccccc2)cc1

1. 0.325
2. 0.688
3. -0.535
4. -0.615

# return z-score for each item in the list
1. COCCOC(=O)N1C(=O)[C@@]2(c3cc(C#CCCO)ccc31)[C@H](c1ccccc1OCCO)N1[C@H](c3ccccc3)[C@H](c3ccccc3)OC(=O)[C@H]1[C@@H]2C(=O)N1CCCCCCC1
2. CC=CC(O)C1C=CC2C(=O)NC(=O)C2N1Nc1ccccn1 (stereo not drawn)

1.03
-0.154

###

# Test system: Neuregulin-1 EGF-like domain
# assay-summary: binders of neuregulin-1 EGF-like domain, primary screen, biochemical, small-molecule microarray, 635 nm fluorescence (AID 1081);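 note: binding of the protein to compounds printed on small-molecule microarray slides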
# protocol-conditions: small-molecule microarray binding, higher = more signal
Please note: Satisfied applies when composite z-score is 1 or greater, and Not satisfied applies otherwise.

smiles_str=COCCOC(=O)N1C(=O)[C@@]2(c3cc(C#CCNC(N)=O)ccc31)[C@H](c1ccc(O)cc1)N1[C@H](c3ccccc3)[C@H](c3ccccc3)OC(=O)[C@H]1[C@@H]2C(=O)N1CCN(c2ncccn2)CC1 cat=Satisfied
smiles_str=COCCOC(=O)N1C(=O)[C@@]2(c3cc(C#CC4(O)CCCCCC4)ccc31)[C@H](c1ccc(OCCO)cc1)N1[C@H](c3ccccc3)[C@H](c3ccccc3)OC(=O)[C@H]1[C@@H]2C(=O)Nc1nc2ccccc2s1 cat=Satisfied
smiles_str=[N-]=[N+]=NCc1ccccc1[C@@H]1OC(c2ccc(OCCCO)cc2)=N[C@]1(Cc1ccccc1N=[N+]=[N-])C(=O)N1CCCCC1 cat=Satisfied
smiles_str=COC(=O)[C@@]1(Cc2ccc(OC)cc2)[C@H]2c3cc(C(=O)N4CCCC4)n(Cc4ccc(S(C)(=O)=O)cc4)c3C[C@H]2CN1C(=O)c1ccccc1 cat=Satisfied
smiles_str=COC(=O)[C@@]1(Cc2ccccc2CN=[N+]=[N-])N=C(c2ccc(OCCCO)cc2)O[C@H]1c1ccccc1 cat=Satisfied

Please tell me: is the compound `COCCOC(=O)N1C(=O)[C@@]2(c3cc(C#CCNC(N)=O)ccc31)[C@H](c1ccc(O)cc1)N1[C@H](c3ccccc3)[C@H](c3ccccc3)OC(=O)[C@H]1[C@@H]2C(N)=O` at or over 1 in terms of composite z-score?
Not satisfied
